- Assay: AUC in ICR mouse at 50 mg/kg/day, sc by LC/MS analysis
- Type: ADME, organism-based
- Set-up: route subcutaneous
- Test Parameters: plasma
Reported Metric: AUC (ng·h/mL)

compound=Nc1cccc(-c2csc(NC(=O)CCCCCCC(=O)NO)n2)c1 reported_metric=AUC unit_text=ng·h/mL observed_value=3600

* * *

- Assay: Half life in ICR mouse at 50 mg/kg/day, po by LC/MS analysis
- Format: ADME, organism-based
- Parameters: route oral
- Test Parameters: in vivo
Reported Metric: half-life (h)

compound=Nc1cccc(-c2csc(NC(=O)CCCCCCC(=O)NO)n2)c1 observed_value=3.5

* * *

- Tested on: Plasmodium falciparum
- Assay: Antimalarial activity against drug-resistant Plasmodium falciparum TM91C235
- Format: functional, organism-based
pIC50: −log10 of the molar value.
The following compounds are shown together with reported pIC50 values.
Reported Metric: pIC50

compound=Cc1sc(NC(=O)CCCCCCC(=O)NO)nc1-c1cccc(N)c1 reported_metric=pIC50 qualifier_operator== observed_value=8.21
compound=Nc1cccc(-c2csc(NC(=O)CCCCCCC(=O)NO)n2)c1 reported_metric=pIC50 qualifier_operator== observed_value=8.82
compound=Nc1ccc(-c2csc(NC(=O)CCCCCCC(=O)NO)n2)cc1 reported_metric=pIC50 qualifier_operator== observed_value=7.71
compound=CN(CCO)c1ccc(-c2csc(NC(=O)CCCCCCC(=O)NO)n2)cc1N reported_metric=pIC50 qualifier_operator== observed_value=9.00
compound=Nc1cccc(-c2cc(C(=O)NCCCCCCC(=O)NO)no2)c1 reported_metric=pIC50 qualifier_operator== observed_value=7.37
compound=O=C(CCCCCCC(=O)Nc1nc(-c2cccc(O)c2)cs1)NO reported_metric=pIC50 qualifier_operator== observed_value=8.77
compound=O=C(CCCCCCC(=O)Nc1nc(-c2cccc(F)c2)cs1)NO reported_metric=pIC50 qualifier_operator== observed_value=7.80
compound=O=C(CCCCCCC(=O)Nc1nc(-c2ccccc2)cs1)NO reported_metric=pIC50 qualifier_operator== observed_value=7.78
compound=Nc1cc(-c2csc(NC(=O)CCCCCCC(=O)NO)n2)ccc1F reported_metric=pIC50 qualifier_operator== observed_value=8.62
compound=CN(C)c1cccc(-c2csc(NC(=O)CCCCCCC(=O)NO)n2)c1 reported_metric=pIC50 qualifier_operator== observed_value=7.22
compound=[N-]=[N+]=Nc1cccc(-c2csc(NC(=O)CCCCCCC(=O)NO)n2)c1 reported_metric=pIC50 qualifier_operator== observed_value=7.71
compound=Nc1cccc(-c2csc(NC(=O)CCCCCCC(=O)O)n2)c1 reported_metric=pIC50 qualifier_operator=< observed_value=5.85
compound=Nc1ccccc1-c1csc(NC(=O)CCCCCCC(=O)NO)n1 reported_metric=pIC50 qualifier_operator== observed_value=7.38
compound=COc1cccc(-c2csc(NC(=O)CCCCCCC(=O)NO)n2)c1 reported_metric=pIC50 qualifier_operator== observed_value=8.21
compound=Nc1cccc(-c2csc(NC(=O)CCCCCC(=O)NO)n2)c1 reported_metric=pIC50 qualifier_operator== observed_value=7.03
compound=Nc1cc(-c2csc(NC(=O)CCCCCCC(=O)NO)n2)ccc1Cl reported_metric=pIC50 qualifier_operator== observed_value=8.85

* * *

- Assay: Tmax in ICR mouse at 50 mg/kg/day, sc by LC/MS analysis
- Assay type: ADME, organism-based
- Set-up: route subcutaneous
- Test Parameters: in vivo
Reported Metric: Tmax (h)

compound=Nc1cccc(-c2csc(NC(=O)CCCCCCC(=O)NO)n2)c1 reported_metric=Tmax unit_text=h observed_value=1.3

FYI, the data here is from ChEMBL document CHEMBL1629555.
